List of IC50 tested on Glyceraldehyde-3-phosphate dehydrogenase (Homo sapiens, UniProt P04406).
Sequence (P04406 whole entry): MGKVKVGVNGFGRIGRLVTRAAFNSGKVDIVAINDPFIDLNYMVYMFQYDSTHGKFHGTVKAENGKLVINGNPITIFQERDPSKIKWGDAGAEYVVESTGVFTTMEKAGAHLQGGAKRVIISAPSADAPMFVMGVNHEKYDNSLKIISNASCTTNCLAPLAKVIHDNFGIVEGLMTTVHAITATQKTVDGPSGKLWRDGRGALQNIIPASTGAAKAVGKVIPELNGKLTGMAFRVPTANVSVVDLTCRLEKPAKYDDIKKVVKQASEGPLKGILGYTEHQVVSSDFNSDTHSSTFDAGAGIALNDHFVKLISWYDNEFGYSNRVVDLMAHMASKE
Endpoint Label: IC50

>  <Molecule>
COc1ccccc1C(=O)Nc1ccc2ccccc2c1

>  <Endpoint Label>
IC50

>  <Reported>
> 10 µM (inconclusive)

$$$$
>  <Molecule>
O=S(=O)(Nc1ccc2ncccc2c1)c1cc(Cl)ccc1Cl

>  <Endpoint Label>
IC50

>  <Reported>
> 100 µM (not active)

$$$$
>  <Molecule>
CCOC(=O)c1cc(-c2ccc(Cl)cc2)n[nH]1

>  <Endpoint Label>
IC50

>  <Reported>
> 100 µM (not active)

$$$$
>  <Molecule>
Cn1c(=O)n(-c2ccc(Cl)cc2)c(=O)n([C@@H](Cc2ccccc2)C(N)=O)c1=O

>  <Endpoint Label>
IC50

>  <Reported>
> 100 µM (not active)

$$$$
>  <Molecule>
COc1ccc(C)cc1S(=O)(=O)Nc1cccnc1

>  <Endpoint Label>
IC50

>  <Reported>
> 100 µM (not active)

$$$$
>  <Molecule>
Cc1ccc(-c2cc(C(=O)O)[nH]n2)c(C)c1

>  <Endpoint Label>
IC50

>  <Reported>
> 100 µM (not active)

$$$$
>  <Molecule>
CCCCCCCCCCCCCCCCCCC#CCCCCCCCCCCCC(=O)O

>  <Endpoint Label>
IC50

>  <Reported>
> 100 µM (not active)

$$$$
>  <Molecule>
COc1cccc(N2CCN(C3=C(Cl)C(=O)N(c4ccc([N+](=O)[O-])cc4)C3=O)CC2)c1

>  <Endpoint Label>
IC50

>  <Reported>
> 50 µM (inconclusive)

$$$$
>  <Molecule>
CN1CCN(C2=C(Cl)C(=O)N(c3cc(Cl)cc(Cl)c3)C2=O)CC1

>  <Endpoint Label>
IC50

>  <Reported>
> 100 µM (not active)

$$$$
